- Target System: SMYD2 (Homo sapiens, UniProt Q9NRG4)
- Sequence (Q9NRG4 whole entry): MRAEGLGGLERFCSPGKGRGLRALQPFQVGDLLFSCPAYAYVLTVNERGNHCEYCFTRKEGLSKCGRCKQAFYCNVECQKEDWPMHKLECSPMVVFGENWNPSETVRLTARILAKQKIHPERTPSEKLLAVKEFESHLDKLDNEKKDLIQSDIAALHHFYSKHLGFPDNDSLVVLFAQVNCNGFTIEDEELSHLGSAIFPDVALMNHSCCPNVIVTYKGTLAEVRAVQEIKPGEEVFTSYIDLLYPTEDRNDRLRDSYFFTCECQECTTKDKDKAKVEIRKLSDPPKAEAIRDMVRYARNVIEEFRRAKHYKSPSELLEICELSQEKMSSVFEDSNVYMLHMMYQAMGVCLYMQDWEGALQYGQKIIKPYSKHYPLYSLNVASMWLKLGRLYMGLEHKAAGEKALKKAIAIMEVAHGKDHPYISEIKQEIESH
- Protocol Summary: Scintillation proximity assay (SPA) for detection of SMYD2 enzymatic inhibition
- Type: biochemical
- Design: The SMYD2 full length enzyme was produced in-house by expression (with an N-terminal 6×His tag) in E. coli; 6xHis (N); made in house; host or cells: E. coli
- Condition: p53 Peptide substrate 1.0 μM, 3H-SAM 60 nM, 30 min at 22° C.; read-out: IC50 [mol/l] (SPA Assay)
pIC50: −log10 of the molar value.
Readout Kind: pIC50

[a] N#C/N=C(/Nc1cccc(OC(F)F)c1)N1CC(N2CCCC(N)C2=O)C(c2ccc(Cl)c(Cl)c2)=N1 (centres unmarked) [Example 1]
[b] N#C/N=C(/Nc1cccc(OC(F)F)c1)N1CC(N2CCC(N)C2=O)C(c2ccc(Cl)c(Cl)c2)=N1 (centres unmarked) [Example 2]
Ask: In the pair a and b , the larger recorded pIC50 belongs to which? // respond with label for picked entry
Reply: a

Data credit: patent US20180118722A1
